assay: NCI Yeast Anticancer Drug Screen. Data for the cln2 rad14 strain (AID 165);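 further: 0% = growth equal to vehicle treated cultures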; settings: S. cerevisiae cln2 rad14 strain, at 50.0 µM, stronger effect = higher value
About 79,000 compounds went through this panel and 15% of them were active in at least one assay; those are over-represented in the sample as a whole.
Measured growth inhibition values are reported for all entries that follow.
MEASURED PROPERTY: growth inhibition (%)

compound=CCCCCCCCCCCCCCCC(=O)N1CC[N+](C)(C)CC1 measured_property="growth inhibition" number=98.2
compound=CCOCCOC(=O)c1cc([N+](=O)[O-])cc([N+](=O)[O-])c1 measured_property="growth inhibition" number=-1.5
compound=O=C1CSC2(CCN(CCCN3c4ccccc4Sc4ccc(Cl)cc43)CC2)N1 measured_property="growth inhibition" number=99
compound=CCCCCC(=O)NNc1ccccc1 measured_property="growth inhibition" number=78
compound=Cc1ccc(NCCN(C)C)c2c(=O)c3c(O)cccc3sc12 measured_property="growth inhibition" number=58.7
compound="CCC12C=CCN3CC[C@@]4(c5cc([C@@]6(C(=O)OC)C[C@@H]7CN(CCc8c6[nH]c6ccccc86)C[C@](O)(CC)C7)c(OC)cc5N(C)[C@H]4[C@@](O)(C(=O)OC)[C@@H]1OC(=O)CCCCCCCCCCCN1C(=O)C=CC1=O)[C@H]32 (stereo not given in full)" measured_property="growth inhibition" number=90.5
compound=CC(C)Cc1cc(O)cc2ccccc12 measured_property="growth inhibition" number=98.4
compound=CC(C)OP(=O)(CCCCCCCCC/C=C/c1ccc2c(c1)OCCOCCOCCOCCO2)OC(C)C measured_property="growth inhibition" number=97.3
compound=CCOC(=O)c1ccc(NC(=O)O/N=C(/Cl)CC)cc1 measured_property="growth inhibition" number=64.8
compound=CC(=O)CC(=O)OCc1ccccc1 measured_property="growth inhibition" number=87.2
